# TARGET: RAC-alpha serine/threonine-protein kinase (Homo sapiens)
# Sequence (P31749 whole entry): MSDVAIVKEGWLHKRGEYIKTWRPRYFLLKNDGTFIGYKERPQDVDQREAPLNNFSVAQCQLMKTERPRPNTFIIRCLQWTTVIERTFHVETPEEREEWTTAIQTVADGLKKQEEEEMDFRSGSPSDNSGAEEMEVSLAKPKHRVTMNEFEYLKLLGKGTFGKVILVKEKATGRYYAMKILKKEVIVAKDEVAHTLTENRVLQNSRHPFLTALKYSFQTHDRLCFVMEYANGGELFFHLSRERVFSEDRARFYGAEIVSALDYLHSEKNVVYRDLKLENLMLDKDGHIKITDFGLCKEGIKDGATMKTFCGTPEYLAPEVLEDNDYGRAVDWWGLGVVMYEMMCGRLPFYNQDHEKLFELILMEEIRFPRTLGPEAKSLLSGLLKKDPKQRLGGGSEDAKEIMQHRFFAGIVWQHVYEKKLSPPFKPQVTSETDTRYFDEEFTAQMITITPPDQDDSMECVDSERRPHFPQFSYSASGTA
MEASURE_NAME: pIC50
Worth noting: pIC50 values are minus log10 of concentrations stated in mol/L.

So what's the measured pIC50 for this one? `CNc1nccc(-c2ccc(C(=O)N[C@H](CN)Cc3ccc(Cl)cc3Cl)s2)n1`
8.22

---

The following molecules are listed with their measured IC50 values.
# TARGET: RAC-gamma serine/threonine-protein kinase (Homo sapiens, UniProt Q9Y243)
# Sequence (Q9Y243 whole entry): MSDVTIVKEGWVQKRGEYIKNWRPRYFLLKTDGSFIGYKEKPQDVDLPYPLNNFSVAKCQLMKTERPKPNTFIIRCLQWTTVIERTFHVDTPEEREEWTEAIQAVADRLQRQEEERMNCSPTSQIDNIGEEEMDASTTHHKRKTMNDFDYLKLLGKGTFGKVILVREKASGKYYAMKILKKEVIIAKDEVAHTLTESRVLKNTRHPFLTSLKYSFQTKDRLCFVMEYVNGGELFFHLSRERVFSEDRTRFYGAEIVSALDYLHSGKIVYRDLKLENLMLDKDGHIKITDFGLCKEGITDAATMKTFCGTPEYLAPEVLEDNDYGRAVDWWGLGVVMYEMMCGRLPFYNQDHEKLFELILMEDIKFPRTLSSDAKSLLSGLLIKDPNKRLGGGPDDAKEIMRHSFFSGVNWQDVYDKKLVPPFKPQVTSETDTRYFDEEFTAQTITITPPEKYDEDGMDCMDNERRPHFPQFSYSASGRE
# PROTOCOL_SUMMARY: Inhibition of AKT3 in presence of 0.2 uM ATP
Express the result in nM but write the number alone.

Worked set:
[[record]]
molecule = "CNc1nccc(-c2ccc(C(=O)N[C@H](C)Cc3ccc(Cl)cc3Cl)s2)n1"
data_value = 820

[[record]]
molecule = "CCNc1nccc(-c2ccc(C(=O)NCCc3ccc(Cl)cc3Cl)s2)n1"
data_value = 1500

[[record]]
molecule = "CNc1nccc(-c2ccc(C(=O)N[C@H](CO)Cc3ccc(Cl)cc3Cl)s2)n1"
data_value = 280


So what's the measured IC50 for this one? `CNc1nccc(-c2ccc(C(=O)NCCc3ccc(Cl)cc3Cl)s2)n1`
990

So what's the measured IC50 for this one? `CNc1nccc(-c2ccc(C(=O)NCCc3ccc(Cl)cc3)s2)n1`
1100

So what's the measured IC50 for this one? CNc1nccc(-c2ccc(C(=O)NCC(C)c3ccc(Cl)cc3Cl)s2)n1 (configuration not stated)
660

So what's the measured IC50 for this one? `CNc1nccc(-c2ccc(C(=O)NCCN(C)C)s2)n1`
7000
